Reported logP values for the following molecules.

# Smiles Code, logP
rows = [
    ("Nc1ccc(S(=O)(=O)Nc2ccnn2-c2ccccc2)cc1", 1.35),
    ("O=C1c2c(O)cc(O)cc2O[C@H](c2ccc(O)c(O)c2)[C@H]1O", 1.4),
]

###

# Assay Explanation: method code SF-HPLC, from DOI: 10.1002/ps.2780290114

# Smiles Code, logP
records = [
    ("CCCCS/C(=N\\c1cccnc1)SCc1ccc(C(C)(C)C)cc1", 7),
]

###

# Assay Explanation: method code SF-RC, from DOI: 10.1016/j.apradiso.2013.03.021, PMID: 23602704
# Stated Conditions: pH 7.4

# Smiles Code, logD
data = [
    ("Nc1nc(=O)n([C@H]2C[C@H](O)[C@@H](CO)O2)cc1I", -0.94),
]

###

# logP annotations
# Assay Explanation: method code SF-AS, from DOI: 10.1080/10826076.2011.619030

# Compound, logP
records = [
    ("CC1(C)OC2C(COC3CC(O)C(O)C(CO)O3)OC(n3ccc(=O)[nH]c3=O)C2O1 (centres undefined)", -1.56),
    ("CC1(C)OC2C(COC(=O)c3ccccc3)OC(n3ccc(=O)[nH]c3=O)C2O1 (centres undefined)", 1.29),
    ("CC1(C)OC2C(COC3CC(O)C(O)C(CO)O3)OC(n3ccc(=O)n(Cc4ccccc4)c3=O)C2O1 (centres undefined)", 0.59),
    ("CC1(C)OC2C(COC3CC(O)C(O)C(CO)O3)OC(n3ccc(=O)n(C(=O)c4ccccc4)c3=O)C2O1 (centres undefined)", 0.13),
]

###

# Assay Explanation: method code SF-AS, from DOI: 10.1021/je700381u
# Stated Conditions: pH 0.0

# Smiles Code, logD
rows = [
    ("O=C(O)c1cccc(F)c1Cl", 1.74),
    ("O=C(O)c1cc(F)ccc1Cl", 2.39),
    ("O=C(O)c1ccc(F)c(Br)c1", 3.56),
    ("O=C(O)c1cc(F)ccc1Br", 2.21),
]

###

Listing of recorded logP by entry.
Readout Name: logP

# Smiles Code, Measured Result
rows = [
    ("OC1CCCCC1", 1.36),
    ("CCCC(C)=O", 0.95),
    ("Cc1c2ccccc2c(C)c2c1ccc1ccccc12", 6.16),
]

###

# Assay Explanation: method code SF-CR+AS, from Korenman, I.; Lineva, S.; Gezikova, N. (1978). Extraction of naphthol-sulfonic acids from aqueous solution. Zh. Prikl. Khim., 51(4)869-871.

# Smiles Code, logP
measured = [
    ("O=S(=O)(O)c1cccc2c(O)cccc12", -0.17),
]

###

# Assay Explanation: method code SF-AS, from DOI: 10.1002/jps.2600630206, PMID: 4204981
The following molecules are shown together with reported logP values.
Readout Name: logP

# Molecule, Measured Result
records = [
    ("O=C1CC(C(=O)O)Oc2ccc(Cl)cc21 (stereo not given)", 1.77),
    ("O=C(O)C1Cc2cc(Cl)ccc2O1 (stereo not given)", 2.11),
    ("O=C(O)C1COc2ccccc2O1 (stereo not given)", 1.4),
    ("O=C(O)C1CCc2cc(Cl)ccc2O1 (stereo not given)", 2.4),
    ("CC(Oc1ccc(Cl)cc1)C(=O)O (stereo not given)", 2.31),
]

###

# Assay Explanation: method code SF-HPLC, from Gao, X.; Yu, Y.; Wang, Y.; Pi, J.; Zhang, W.; Xiao, X. (2013). Determination of equilibrium solubility and apparent partition coefficient of bakuchiol. West China Journal of Pharmaceutical Sciences, …

# Smiles Code, logP
records = [
    ("C=C[C@@](C)(/C=C/c1ccc(O)cc1)CCC=C(C)C", 4.27),
]

###

# Assay Explanation: method code SF, from Huang, Q.; Wang, L.; Han, S.; Wang, G.; Gao, H. (1993). Quantitative relation between molecular structures and the hydrophobic parameters of halogenated arenes. Chemical Journal of Chinese …
Readout Name: logP

# Smiles Code, Measured Result
measured = [
    ("Clc1ccccc1Br", 3.83),
    ("Brc1cccc(Br)c1Br", 4.98),
    ("Clc1cccc(Br)c1", 3.83),
    ("Brc1cc(Br)cc(Br)c1", 4.98),
    ("Brc1ccc(Br)c(Br)c1", 4.98),
]

###

Readout Name: logP

# Molecule, Measured Result
records = [
    ("ClC1=C(Cl)C2(Cl)C3C(Cl)C=CC3C1(Cl)C2(Cl)Cl (stereo unspecified)", 5.58),
]

###

# Assay Explanation: method code SF-AS, from DOI: 10.1016/0378-5173(90)90042-3
Reported logP values are given for each entry in this list.

# Smiles Code, logP
records = [
    ("COC(=O)c1cc(=O)[nH]c(=O)[nH]1", 0.63),
    ("CCCCCOC(=O)c1cc(=O)[nH]c(=O)[nH]1", 1.62),
    ("CCOC(=O)c1cc(=O)[nH]c(=O)[nH]1", 0.68),
    ("CC(C)CCOC(=O)c1cc(=O)[nH]c(=O)[nH]1", 1.48),
]

###

# Assay Explanation: method code SF-RC, from DOI: 10.1002/syn.21606, PMID: 22927303
# Stated Conditions: pH 7.4
# logD per record follows
Readout Name: logD

# Compound, Readout Name, Measured Result
records = [
    ("CCc1cc2cc(C(=O)C3CCC(OC)CC3)ccc2nc1F (configuration not stated)", "logD", 3.54),
    ("CCc1cc2cc(C(=O)C3CCC(OC)CC3)ccc2nc1C (configuration not stated)", "logD", 3.38),
]

###

# Assay Explanation: method code SF-AS, from PMID: 1586384
Readout Name: logP

# Compound, Measured Result
data = [
    ("CCOC(=O)OC(C)OC(=O)c1cn2c3c(c(N4CCN(C)CC4)c(F)cc3c1=O)OCC2C (stereo unspecified)", 0.44),
]

###

# Assay Explanation: method code SF-HPLC, from DOI: 10.1248/cpb.47.1081, PMID: 10478463
# Stated Conditions: pH 6.5

# Molecule, logD
measured = [
    ("CON=C(C(=O)NC1C(=O)N2C(C(=O)OC(C)OC(=O)OC3CCCCC3)=CCSC12)c1csc(N)n1 (stereo not drawn)", 2.52),
    ("CON=C(C(=O)NC1C(=O)N2C(C(=O)OC(C)OC(=O)OC(C)C)=CCSC12)c1csc(N)n1 (stereo not drawn)", 1.37),
    ("CON=C(C(=O)NC1C(=O)N2C(C(=O)OC(C)OC(C)=O)=CCSC12)c1csc(N)n1 (stereo not drawn)", 0.46),
]

###

# Assay Explanation: method code SF-RC, from DOI: 10.1021/jf60186a044, PMID: 4688915
Recorded logP, one value per entry.

# Compound, logP
records = [
    ("Cc1ccc(C(c2ccc(Cl)cc2)C(Cl)(Cl)Cl)cc1 (configuration not stated)", 4.47),
    ("Cc1ccc(C(c2ccc(C)cc2)C(Cl)(Cl)Cl)cc1", 3.57),
]

###

Reported logP by item:
# Assay Explanation: method code SF-AS, from DOI: 10.1002/jhet.5570150704
Readout Name: logP

# Smiles Code, Measured Result
data = [
    ("Cc1nc(-c2ccccn2)no1", 0.79),
    ("CNC(=O)OCc1cccc(COC(=O)NC)n1", 0.24),
]

###

# Assay Explanation: method code SF-HPLC, from PMID: 1854437
# Stated Conditions: pH 7.4

# Smiles Code, logD
data = [
    ("CNC(=NC#N)NCCSCc1ncn(COC(=O)C(C)(C)C)c1C", 1.81),
    ("CCCC(=O)OCn1cnc(CSCCNC(=NC#N)NC)c1C", 1.6),
]

###

The entries below come with measured logP values attached.
# Assay Explanation: method code SF-AS, from DOI: 10.1002/em.2850200210, PMID: 1505530
Readout Name: logP

# Smiles Code, Readout Name, Measured Result
records = [
    ("O=C1c2cc([N+](=O)[O-])ccc2-c2ccc([N+](=O)[O-])cc21", "logP", 2.84),
    ("O=[N+]([O-])c1ccc2ccccc2c1", "logP", 3.24),
    ("O=[N+]([O-])c1cccc2c([N+](=O)[O-])cccc12", "logP", 2.58),
    ("O=[N+]([O-])c1ccc2c(c1)Cc1cc([N+](=O)[O-])ccc1-2", "logP", 3.35),
    ("O=[N+]([O-])c1cccc2cccnc12", "logP", 1.44),
]

###

# Assay Explanation: method code SF, from DOI: 10.1021/jm00294a005, PMID: 5000561
Readout Name: logP

# Compound, Readout Name, Measured Result
records = [
    ("CCCC(=O)OC1C(C)OC(OC2C(C)OC(OC3C(CC=O)CC(C)C(O)/C=C\\C=C\\CC(C)OC(=O)CC(OC(C)=O)C3OC)C(O)C2N(C)C)CC1(C)O (centres undefined)", "logP", 1.88),
    ("CCCCC1CC(C(=O)NC(CC(C)O)C2OC(SC)C(O)C(O)C2O)N(C)C1 (centres undefined)", "logP", 0.56),
    ("CCCC(=O)O[C@H]1[C@H](C)O[C@@H](O[C@H]2[C@H](N(C)C)[C@@H](O)[C@H](O[C@H]3[C@@H](CC=O)C[C@@H](C)[C@@H](O)/C=C/C=C/C[C@@H](C)OC(=O)C[C@@H](O)[C@@H]3OC)O[C@@H]2C)C[C@@]1(C)O", "logP", 1.88),
    ("CO[C@@H]1[C@@H](O[C@@H]2O[C@H](C)[C@@H](O[C@H]3C[C@@](C)(O)[C@@H](OC(C)=O)[C@H](C)O3)[C@H](N(C)C)[C@H]2O)[C@@H](CC=O)C[C@@H](C)[C@@H](O)/C=C/C=C/C[C@@H](C)OC(=O)C[C@H]1OC(C)=O", "logP", 0.88),
]
